# TESTED_TARGET: CDK2 (Homo sapiens)
# Construct: endogenous in cells; host or cells: OVCAR3 cells
# ASSAY_TEXT: Phospho-RB measurement in OVCAR3 cells (HTRF phospho-RB S807/811)
# Assay type: cell-based
# RUN_CONDITIONS: phosphorylation of RB protein at S807/811, HTRF, 24 h compound treatment, 0.3 to 10,000 nM, read-out: pRb (uM)
MEASURED_ENDPOINT: IC50 (µM)

Take a look at these entries with their results.
MOLECULE	REPORTED_VALUE
CC1(C#N)CC(N2CC3CCC(C2)N3c2nc(-c3cccc(NS(=O)(=O)c4c(F)cccc4F)c3F)c(-c3ccnc(NC4CC5(C4)CS(=O)(=O)C5)n3)s2)C1 (stereo not shown)	1.13
O=S1(=O)CCC(N2CC3CCC(C2)N3c2nc(-c3cccc(NS(=O)(=O)c4c(F)cccc4F)c3F)c(-c3ccnc(NC4CC5(C4)CS(=O)(=O)C5)n3)s2)CC1	8.12
[2H]C([2H])([2H])N1CC2CCC(C1)N2c1nc(-c2cccc(NS(=O)(=O)c3c(F)cccc3F)c2F)c(-c2ccnc(NC3CC4(C3)CS(=O)(=O)C4)n2)s1	0.1
C[C@H]1COC[C@H](C)N1c1nc(-c2cccc(NS(=O)(=O)c3c(F)cccc3C(F)(F)F)c2F)c(-c2ccnc(N[C@H]3[C@@H]4CS(=O)(=O)C[C@@H]43)n2)s1	0.3
O=S1(=O)C[C@@H]2[C@H](C1)[C@H]2Nc1nccc(-c2sc(C3(C(F)F)CC3)nc2-c2cccc(NS(=O)(=O)c3c(F)cccc3C(F)(F)F)c2F)n1 [Example 72]	0.061
CS(=O)(=O)C1CCC(Nc2nccc(-c3sc(C45CC(C(F)(F)F)(C4)C5)nc3-c3cccc(NS(=O)(=O)c4c(Cl)cccc4C(F)(F)F)c3F)n2)CC1 (stereo not shown)	0.73
O=S1(=O)CC2C(C1)C2Nc1nccc(-c2sc(N3C4CCC3COC4)nc2-c2cccc(NS(=O)(=O)c3c(F)cccc3C(F)(F)F)c2F)n1 (stereo not shown)	0.03
O=S1(=O)CC2(CC(Nc3nccc(-c4sc(N5C6CCC5CN(C5CC5)C6)nc4-c4cccc(NS(=O)(=O)c5c(F)cccc5C(F)(F)F)c4F)n3)C2)C1	0.13

P = O=S1(=O)CC2CCC(C1)N2c1nc(-c2cccc(NS(=O)(=O)c3c(F)cccc3F)c2F)c(-c2ccnc(NC3CC4(C3)CS(=O)(=O)C4)n2)s1
Q = O=S1(=O)CC2(CC(Nc3nccc(-c4sc(N5C6CCCC5CC6)nc4-c4cccc(NS(=O)(=O)c5c(F)cccc5F)c4F)n3)C2)C1
R = CC1(c2nc(-c3cccc(NS(=O)(=O)c4c(F)cccc4F)c3F)c(-c3ccnc(NC4CC5(C4)CS(=O)(=O)C5)n3)s2)CCNCC1
S = C[C@H]1CNC[C@H](C)N1c1nc(-c2cccc(NS(=O)(=O)c3c(F)cccc3F)c2F)c(-c2ccnc(NC3CC4(C3)CS(=O)(=O)C4)n2)s1
T = CN1CC2CCC(C1)N2c1nc(-c2cccc(NS(=O)(=O)c3c(F)cccc3OC(F)F)c2F)c(-c2ccnc(N[C@H]3[C@@H]4CS(=O)(=O)C[C@@H]43)n2)s1
Would you mind ranking these molecules by ascending IC50? Could you list the labels in the order requested?
T, Q, S, P, R
(T: 0.04 µM, Q: 0.19 µM, S: 3.86 µM, P: 7.13 µM, R: 18.1 µM)
